Kindly supply the reported TGI values for the records listed here.
Tested on: ACHN renal
assay method text: NCI tumour cell line growth inhibition, 48 h

These solved cases illustrate the format of a correct answer.
• CC/C=C/C(CC)C/C(C)=C\[C@]1(CC)C[C@H](CC)[C@H](CC(=O)O)OO1 (stereo partly drawn) = 0.641 µM
• Cn1c(-c2ccncc2)c(-c2ccc(F)cc2)c2ncccc21 = > 25 µM
• O=c1ncc(I)cn1C1CC(O)C(CO)O1 (stereo not drawn) = > 3250 µM
• CSc1nc(NC2OC(COC(C)=O)C(OC(C)=O)C(OC(C)=O)C2OC(C)=O)c(N=CC=Nc2c(NC3OC(COC(C)=O)C(OC(C)=O)C(OC(C)=O)C3OC(C)=O)nc(SC)[nH]c2=O)c(=O)[nH]1 (stereo not drawn) = > 100 µM
• CCCCCCN1CCc2c(C)c(C#N)c3nc4ccccc4n3c21 = > 100 µM

For each of the items listed, what is its TGI?
1. Cc1[nH]c(=O)nc2nc3ccc(Cl)cc3c(N(CCO)CCO)c12
2. CC(C)NC(C)C(C)c1ccccc1 (stereo not drawn)
3. COc1cc([C@@H]2c3cc4c(cc3[C@@H](OC3OC5CO[C@@H](c6cccs6)OC5C(O)C3O)[C@H]3COC(=O)[C@H]23)OCO4)cc(OC)c1O (stereo partly drawn)
4. S=c1[nH]nc(-c2ccccc2)n1/N=C\c1ccc(-c2ccc(Cl)cc2)o1
5. CCCCCCCCCCCC(=O)NCc1ccc(OC(=O)CCCCCCCCCCC)c(OC)c1
6. NS(=O)(=O)c1cc2c(cc1Cl)NC(/C(=N/NC(=O)c1ccncc1)C1C(=O)NC(=O)NC1=O)=NS2(=O)=O
7. O=C1C=C(Nc2ccc(Br)cc2)c2ccccc2C1=O
8. COc1cc2nn(-c3ccccc3)nc2c2nonc12

Result:
["> 100 µM", "> 100 µM", "2.12 µM", "> 100 µM", "> 100 µM", "> 100 µM", "16.2 µM", "> 100 µM"]

* * *

Kindly supply the reported TGI values for the records listed here.
Tested on: SN12C renal
assay method text: NCI tumour cell line growth inhibition, 48 h

These solved cases illustrate the format of a correct answer.
- CC(=O)Nc1ccc(-c2nnc(SCC(=O)Nc3ccccc3)o2)cc1: > 100 µM
- O=S1OC[C@H](CCCl)O1 (stereo partly drawn): > 100 µM

For each of the items listed, what is its TGI?
1. CC(=O)OC12c3ccccc3C1CCCC21OCCCO1 (stereo not drawn)
2. CCCCCCCCCCCCCCCCCCOP(=O)([O-])OCC[N+](C)(C)C

Result:
1. > 100 µM
2. 1.53 µM

For each of the items listed, what is its TGI?
1. COc1ccc(-c2cc(=O)c3c(O)cc(O)cc3o2)cc1OC
2. Nc1ncnc2c1ncn2C1CC(O)C(CO)O1 (stereo not drawn)
3. O=C(Nc1nnc(-c2ccc(Cl)cc2)o1)C(SC(=S)N1CCCCC1)c1ccccc1 (stereo not drawn)

Result:
["> 100 µM", "> 100 µM", "41.6 µM"]

For each of the items listed, what is its TGI?
1. CCCCOC(=O)CC(CC(=O)OCCCC)(OC(C)=O)C(=O)OCCCC
2. CC(=O)OCC1OC(Nc2ccc3nc(C)n(-c4ccccc4)c(=O)c3c2)C(OC(C)=O)C(OC(C)=O)C1OC(C)=O (stereo not drawn)
3. CSc1nc(NC2OC(COC(C)=O)C(OC(C)=O)C(OC(C)=O)C2OC(C)=O)c(N=CC=Nc2c(NC3OC(COC(C)=O)C(OC(C)=O)C(OC(C)=O)C3OC(C)=O)nc(SC)[nH]c2=O)c(=O)[nH]1 (stereo not drawn)
4. O=C1C(C=NC(=S)c2ccccc2)=C(O)c2ccccc21
5. Clc1ccccc1/C=C/c1ccnc2ccccc12
6. CCC1=CCN(c2ccc(C)cc2)OC1c1ccc(OC)cc1 (stereo not drawn)

Result:
> 200 µM
> 50 µM
> 100 µM
> 100 µM
30.1 µM
> 100 µM

For each of the items listed, what is its TGI?
1. O=c1ncc(I)cn1C1CC(O)C(CO)O1 (stereo not drawn)
2. Cc1cc2cn3c4ccc(O)cc4nc(N)c3c2cc1C
3. C=[CH][Sn]([CH]=C)([S]c1cccc2cccnc12)[S]c1cccc2cccnc12
4. C=C(C)c1cc(C(C)(C)C)cc(C(=C)C)c1S(C)(=O)=O

Result:
> 3250 µM
1.89 µM
1.6 µM
> 100 µM
